phosphorylation enrichment values for the sequences below.
Tested on: AncSZ
Assay: phosphorylation enrichment, bacterial display (enrichment ratio); higher = better substrate or ligand; peptides without Tyr show the background
No unit in the answer, please; the number alone is enough.

FCVVRYCWLRR [MPZ_Y181_Y177C]
0.718
SGPRHYTIAAL [TTR_Y125_R124H]
0.59
GSRGKCSSGFR [ATM_Y332_Y332C]
0.471

Lab note: need phosphorylation enrichment with AncSZ for entry SIIKDYFHRGA [GATM_Y203] , please look it up.
0.579

What measured phosphorylation enrichment is associated with DDDPEDRKFLE [UPF3B_Y160_Y160D] on AncSZ?
1.12

###

Known SH2 binding enrichment of a selection of sequences
Biological target: Grb2 SH2 (UniProt P62993)
Sequence (P62993 whole entry, looked up): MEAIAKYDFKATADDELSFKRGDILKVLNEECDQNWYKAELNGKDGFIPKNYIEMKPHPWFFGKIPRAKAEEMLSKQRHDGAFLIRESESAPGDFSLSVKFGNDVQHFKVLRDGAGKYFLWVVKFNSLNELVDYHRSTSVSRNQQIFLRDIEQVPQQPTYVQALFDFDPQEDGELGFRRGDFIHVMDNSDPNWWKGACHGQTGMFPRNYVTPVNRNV
Assay: SH2 binding enrichment of the phosphorylated peptide, bacterial display (enrichment ratio); higher = better substrate or ligand; peptides without Tyr show the background
Field format: numeric only.

HLNLTYRILSF [MMP23B_Y95_F91L]
1.03

Using the record for TDKLFYIFTSG [SLC27A4_Y243_YF] , report its SH2 binding enrichment.
0.851

Value lookup for SH2 binding enrichment; key = RAMRRYLERGE [ERBB3_Y680]
0.716

Returns the measured SH2 binding enrichment for the input sequence. Input: YMKEPYIQSRF [HIPK4_Y175_V171M]
1.12

Item ARLEFYENEKK [IRS1_Y47_YF] has what recorded SH2 binding enrichment?
1.18

Give its SH2 binding enrichment value. Item: GANSEYIIAEK [ECHS1_Y35_F33S]
1

Data request, read-out SH2 binding enrichment, for LDYNEYFRDLN [HPRT1_Y198]
0.727

Endpoint output: SH2 binding enrichment of CPYNLYAEQFS [HGD_Y40_L44F] . Value?
0.855

What measured SH2 binding enrichment goes with LTTEAYEWEPR [ELMOD3_Y61] ?
0.744

SH2 binding enrichment for GKSFTYAAFHA [KCNT1_Y563] ?
0.855

Please report the recorded SH2 binding enrichment for VYSTDCYRVGG [NTRK2_Y706_Y706C] .
0.903

Return reported SH2 binding enrichment; argument: NGTVTYAIIAG [CDH23_Y1672_V1675I]
0.78

Return reported SH2 binding enrichment; argument: VITTLYIGFLG [KCNQ1_Y267_L262V]
0.888

What value of SH2 binding enrichment has been recorded for this entry: CGTPDNIAPEI [PRKCG_Y521_Y521N]
0.777

###

System: Fer (mouse)
Assay: phosphorylation enrichment, bacterial display (enrichment ratio); higher = better substrate or ligand; peptides without Tyr show the background
Quick rule: phosphorylation enrichment of at least 0.5 means 1, below that means -1.

Please review the entries below; each comes with its answer.
IKNPQYFSDAC [NTRK1_Y496_E492K]
-1
VYSTDCYRVGG [NTRK2_Y706_Y706C]
1
MSRDIYSTDFF [NTRK1_Y676_YF]
1
GEYYRYLAEVA [YWHAG_Y133_D129E]
-1
KVFRVYQGQQP [MUTYH_Y494]
-1
LLSISYVGCSL [ADGRD1_Y571_S567L]
1
SGIYQYNIAKF [FOXL2_Y83_I84N]
1
IVRSLYEDLED [VHL_Y185]
1

Textbook exercise: given the entry LTFDEYRNISQ [ANXA3_Y216] , state whether its phosphorylation enrichment is greater than or equal to 0.5.
1

Item KDKLPYPYDDP [GPX2_Y125] with phosphorylation enrichment of 0.5 or above?
-1

###

Biological target: EPHB2 (UniProt P29323)
Sequence (P29323 whole entry, looked up): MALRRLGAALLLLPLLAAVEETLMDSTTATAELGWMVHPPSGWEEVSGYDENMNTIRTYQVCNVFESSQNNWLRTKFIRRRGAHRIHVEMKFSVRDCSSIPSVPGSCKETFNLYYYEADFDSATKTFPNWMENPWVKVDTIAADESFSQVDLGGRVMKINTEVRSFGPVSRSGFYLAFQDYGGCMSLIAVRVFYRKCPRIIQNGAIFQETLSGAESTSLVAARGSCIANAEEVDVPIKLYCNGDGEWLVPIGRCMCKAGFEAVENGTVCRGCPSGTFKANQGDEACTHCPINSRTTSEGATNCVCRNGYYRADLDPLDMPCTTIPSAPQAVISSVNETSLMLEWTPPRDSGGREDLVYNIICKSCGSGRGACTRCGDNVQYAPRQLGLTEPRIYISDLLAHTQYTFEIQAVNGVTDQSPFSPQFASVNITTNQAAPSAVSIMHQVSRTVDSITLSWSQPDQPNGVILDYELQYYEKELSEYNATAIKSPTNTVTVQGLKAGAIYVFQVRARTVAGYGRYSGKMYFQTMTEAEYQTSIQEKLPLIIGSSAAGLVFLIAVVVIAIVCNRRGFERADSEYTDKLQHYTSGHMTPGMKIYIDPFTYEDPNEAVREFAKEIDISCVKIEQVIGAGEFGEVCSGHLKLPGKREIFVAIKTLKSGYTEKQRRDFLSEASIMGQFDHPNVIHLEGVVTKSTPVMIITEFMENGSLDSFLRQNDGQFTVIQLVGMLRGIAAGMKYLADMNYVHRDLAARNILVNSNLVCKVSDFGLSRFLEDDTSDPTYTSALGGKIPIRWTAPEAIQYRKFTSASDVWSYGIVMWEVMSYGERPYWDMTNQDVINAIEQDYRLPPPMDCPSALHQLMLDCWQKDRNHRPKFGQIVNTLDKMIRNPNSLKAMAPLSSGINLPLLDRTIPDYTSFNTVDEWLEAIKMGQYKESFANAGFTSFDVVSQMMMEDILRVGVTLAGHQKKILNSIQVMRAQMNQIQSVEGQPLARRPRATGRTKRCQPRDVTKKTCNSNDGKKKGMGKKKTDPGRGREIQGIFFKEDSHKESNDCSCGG
Assay: phosphorylation enrichment, bacterial display (enrichment ratio); higher = better substrate or ligand; peptides without Tyr show the background
Property Measured: phosphorylation enrichment
Answer using only a numeral; do not append any unit.

LTRDIYKNDFF [ROS1_Y2110_A2106T_YF]
0.495

Which phosphorylation enrichment is reported for this sequence? RSGNCYLDIRP [FBN1_Y1535]
0.7

Give its phosphorylation enrichment value. Item: FFCRWYRNQKS [EREG_Y144_R147Q_YF]
0.489

###

Test system: AncSZ
Experiment: phosphorylation enrichment, bacterial display (enrichment ratio); higher = better substrate or ligand; peptides without Tyr show the background
Record 1 whenever phosphorylation enrichment is at 1 or higher; record -1 when lower.

Check out these entries, answers already filled in.
KDFETYQPFQN [CTNND2_Y1157_YF]
1
EEVPLYESATT [DCC_Y809_G805E]
1
ILDEAYVMAIV [EGFR_Y764_S768I]
1

Here is another sequence to look at.
Decide: phosphorylation enrichment of IHKEFYDGLFP [BCR_Y561] >= 1?
1

###

Target: c-Src SH2
Test: SH2 binding enrichment of the phosphorylated peptide, bacterial display (enrichment ratio); higher = better substrate or ligand; peptides without Tyr show the background
SH2 binding enrichment for assorted sequences
# output: bare number, no unit

Consider the reported SH2 binding enrichment for these sequences:
FKGKKYKPLDL [RPL35_Y78_YF]
0.479
YFRDGHMPRQY [GSS_Y270_Y270H]
0.51
HTLMKYTDGDQ [PUS7L_Y94_I92M]
0.563

Attention now shifts to the item below.
# value lookup — system c-Src SH2, readout SH2 binding enrichment, item TINPIYEHVGY [CHN1_Y143]
0.574

###

System: c-Src
Assay: phosphorylation enrichment, bacterial display (enrichment ratio); higher = better substrate or ligand; peptides without Tyr show the background
Property Measured: phosphorylation enrichment
I'd appreciate a reply containing only the number, no unit.

QLPRGYISIPV [BAG3_Y205]
0.592
KACKHYLTKRT [ZBTB5_Y118_T121K]
0.581
DDFDLYGGEKF [PTPN11_Y66_Y62D_YF]
2.14
RLPNGYGLAFR [DLK1_Y262_S260N_YF]
0.616
VNKIFYPDFIV [LIG3_Y768_YF]
0.432
RRVLVYRGRGA [QDPR_Y16_G17R]
0.754

So what does the record say about phosphorylation enrichment for GVFSRHFTTFD [CLCA1_Y661_Y661H_YF] ?
0.184

Need phosphorylation enrichment, item KDFETYQPFQN [CTNND2_Y1157_YF]
4.18

Quick one: phosphorylation enrichment for ELANLYHHVCM [BICD2_Y538] ?
1.47

###

Target: Hck (UniProt P08631)
Sequence (P08631 whole entry, looked up): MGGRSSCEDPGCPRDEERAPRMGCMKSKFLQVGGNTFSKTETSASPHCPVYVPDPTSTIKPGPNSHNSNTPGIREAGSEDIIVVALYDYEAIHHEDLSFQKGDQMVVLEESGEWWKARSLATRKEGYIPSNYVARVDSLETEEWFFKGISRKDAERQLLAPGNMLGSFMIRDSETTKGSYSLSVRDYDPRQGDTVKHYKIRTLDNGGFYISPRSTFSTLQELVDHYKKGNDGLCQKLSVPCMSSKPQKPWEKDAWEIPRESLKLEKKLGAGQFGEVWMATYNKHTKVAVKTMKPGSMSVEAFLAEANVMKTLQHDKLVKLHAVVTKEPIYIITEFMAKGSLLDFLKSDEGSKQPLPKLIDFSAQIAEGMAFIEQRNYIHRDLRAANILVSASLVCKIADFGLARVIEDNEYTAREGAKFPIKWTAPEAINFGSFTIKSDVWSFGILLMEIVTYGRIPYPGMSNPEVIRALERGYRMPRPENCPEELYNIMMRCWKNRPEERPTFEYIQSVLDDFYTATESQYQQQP
Test: phosphorylation enrichment, bacterial display (enrichment ratio); higher = better substrate or ligand; peptides without Tyr show the background
Property Measured: phosphorylation enrichment
Just the number.

Example entries begin here.
SSYSGYIMMPN [LEF1_Y114]
0.51
FAGRDYSLDEF [MYOF_Y1705_G1701A_YF]
0.51
IMNLLYHVVGW [GBA_Y412_T408M]
6.31
TILEHYRRTHC [MYBPC3_Y1119_V1115I]
0.524
LERYIYNRQEF [HLA-DPB1_Y59_E62Q]
1.32

Fill blank: measured phosphorylation enrichment of the sequence PADQAYSWYQH [NDST1_Y711_R709Q] is ____.
1.37

Please look up its phosphorylation enrichment: REIIAYQPYGK [PRKCG_Y529_P524R]
0.563

Could you share which phosphorylation enrichment value was measured for PSALGYSPSLR [LLGL2_Y40] ?
0.472

For LHNLFYQLEAE [PKP2_Y616_S615F] , what is its reported phosphorylation enrichment?
2.2

Reported phosphorylation enrichment for AQAGEYGAEAL [HBA1_Y25_H21Q] : what is it?
0.514

Sample TKLKDYYIFNK [CCDC42_Y149_A144T] — what was its phosphorylation enrichment?
0.752

Using the record for ARTNEYKIIRT [INA_Y87] , report its phosphorylation enrichment.
0.502

// lookup phosphorylation enrichment for RRVEPYGENFN [APOA4_Y310]
0.45

###

Target: Fyn (UniProt P06241)
Sequence (P06241 whole entry, looked up): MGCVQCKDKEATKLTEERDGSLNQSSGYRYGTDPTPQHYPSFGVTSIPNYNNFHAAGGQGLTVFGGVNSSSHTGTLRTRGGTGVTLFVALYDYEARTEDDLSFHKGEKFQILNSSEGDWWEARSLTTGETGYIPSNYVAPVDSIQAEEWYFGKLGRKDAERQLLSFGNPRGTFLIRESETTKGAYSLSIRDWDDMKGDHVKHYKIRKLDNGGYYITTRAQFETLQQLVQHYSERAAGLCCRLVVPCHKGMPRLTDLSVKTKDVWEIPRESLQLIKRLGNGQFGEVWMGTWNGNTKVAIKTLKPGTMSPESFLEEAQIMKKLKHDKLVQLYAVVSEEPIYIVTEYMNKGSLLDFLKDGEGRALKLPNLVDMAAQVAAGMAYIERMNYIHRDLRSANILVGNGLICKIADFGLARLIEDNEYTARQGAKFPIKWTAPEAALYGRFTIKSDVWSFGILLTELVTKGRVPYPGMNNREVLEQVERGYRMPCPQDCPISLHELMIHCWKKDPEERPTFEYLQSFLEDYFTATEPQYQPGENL
Experiment: phosphorylation enrichment, bacterial display (enrichment ratio); higher = better substrate or ligand; peptides without Tyr show the background
In this section we review reported phosphorylation enrichment values for a set of sequences.
Just the number, please, no unit after it.

The following sequences have reported results that may help.
DTMQTYNGNDE [TSPAN7_Y131_A127T]
0.491
SETSRYLSDLF [KCNJ3_Y67]
0.504

Now for the sequence whose phosphorylation enrichment we want.
Name the recorded phosphorylation enrichment for AQAGEYGAEAL [HBA1_Y25_H21Q] .
0.507

###

Molecular target: c-Src SH2
Experiment: SH2 binding enrichment of the phosphorylated peptide, bacterial display (enrichment ratio); higher = better substrate or ligand; peptides without Tyr show the background
Threshold check on SH2 binding enrichment: at or above 0.5 gives Met, strictly below gives Not met.

SIKDKYVTAFF [KCNH2_Y611_L615F_YF]
Met
HLDRSYSYSYS [PEAR1_Y890_R885H]
Met
SMAKYYASEIA [ACADSB_Y373]
Not met
INSLKYAYNIS [EIF2B5_Y583]
Met

Could you please find out whether VMIFAYLLHRG [PTEN_Y138_C136Y_YF] has SH2 binding enrichment that meets 0.5 or exceeds it?
Met

Reported SH2 binding enrichment at or above 0.5? AIDDKYSRREE [SART1_Y685]
Not met

Confirm if SH2 binding enrichment reported for the sequence GQKVAYGGTED [ALDH3A1_Y305_G309E] is 0.5 or above.
Not met

Does the sequence CEQELYSQLVF [WAS_Y102_W97C_YF] have recorded SH2 binding enrichment that is 0.5 or more?
Met

Threshold query (SH2 binding enrichment >= 0.5) on GIVEDYRPPLY [ACVRL1_Y421_F425L]
Not met

Item ANAFIYVVQLP [L1CAM_Y420_YF] with SH2 binding enrichment of 0.5 or above?
Not met

For this sequence, is measured SH2 binding enrichment 0.5 or higher? LKGQVYILGLE [ASS1_Y359_R363L]
Met

hey, is SH2 binding enrichment for this one >= 0.5? PSQRRYVFFFS [PTEN_Y174_YF]
Met

Threshold query (SH2 binding enrichment >= 0.5) on DLDFTYIYPNI [PTEN_Y27_L25F]
Met

State whether the measured SH2 binding enrichment reaches 0.5, counting equality as reaching it, for FADPFYDFEIE [ZC3H18_Y372_YF]
Met

Is it the case that EPVSDYINADI [PTPN11_Y304_N308D] has SH2 binding enrichment reaching or exceeding 0.5?
Not met

Hi team, for NGTVTYAIIAG [CDH23_Y1672_V1675I] , is the recorded SH2 binding enrichment at or above 0.5?
Met

Entry ITRDEYPSNPM [CEMIP2_Y1015] : is its SH2 binding enrichment no less than 0.5?
Not met

All figures here come from the supplement of paper PMC10065799.
